The compounds listed here are annotated with their TGI.
# Test system: SNB-75 CNS
# Test method notes: NCI tumour cell line growth inhibition, 48 h
Measured quantity: TGI (µM)

>>> quantitative_readout("CN(C)CCNC(=O)c1cccc2c1nc(-c1ccccn1)c1ccccc12")
47.1
>>> quantitative_readout("COc1cc(-c2coc3c(OC)c(OC4OC(COC5OC(C)C(O)C(O)C5O)C(O)C(O)C4O)c(OC)c(O)c3c2=O)cc(C)c1O (stereo not given)")
69.6

---

# Test system: SK-MEL-28 melanoma
# Test method notes: NCI tumour cell line growth inhibition, 48 h
Measured quantity: TGI

>>> result("CN(C)CCNC(=O)c1cccc2c1nc(-c1ccccn1)c1ccccc12")
"29.9 µM"
>>> result("O=C(O/N=C1/CCCC/C1=C\\c1ccccc1)c1ccc(Cl)cc1")
"> 100 µM"
>>> result("COc1ccc(CCC2NCCc3cc(OC)c(OC)cc32)cc1 (configuration not stated)")
"> 100 µM"
>>> result("CC(C)(C)c1cc(C2NC(=O)NC2=O)cc(C(C)(C)C)c1O (configuration not stated)")
"> 100 µM"
>>> result("CC(=O)OC1C(O)C(C)OC(OC(=O)C2CCC3C(C2)OC2(CC(OC(=O)/C=C/c4ccccc4)C(C)CO2)C32CO2)C1OC1OC(C)C(O)C(O)C1O (configuration not stated)")
"0.0685 µM"
>>> result("O=C1OC(C(O)C(O)C(O)CO)C(O)C1O (configuration not stated)")
"> 100 µM"
>>> result("CC(C)(C)OC(=O)N1C/C=C\\C(=O)C2(OCCO2)c2ccccc21")
"49.5 µM"
>>> result("Clc1ccc(Nc2nc3ccccc3c3occc23)cc1")
"14.4 µM"
>>> result("CC(C)=CCC/C(C)=C/CC/C(C)=C/CSc1ccc(Cl)cc1C(=O)O")
"33.9 µM"
>>> result("Nc1c(O)c(S(=O)(=O)O)c(O)c2c1C(=O)c1ccccc1C2=O")
"> 100 µM"
>>> result("Nc1nc(Nc2ccc3c(c2)CCC(N2CCCC2)CC3)nn1-c1cc2c(nn1)-c1ccccc1CCC2 (configuration not stated)")
"3.01 µM"
>>> result("Cn1cnc([N+](=O)[O-])c1Sc1nnc(C(F)(F)F)n1C")
"38.1 µM"
>>> result("COc1cc(/C=C2\\CCc3ccccc3C2=O)cc(OC)c1OC")
"28.4 µM"
>>> result("CN(C)CCCC(=O)Nc1ccc(Cn2nnc3c2C(=O)c2nnn(Cc4ccc(NC(=O)CCCN(C)C)cc4)c2C3=O)cc1")
"20.3 µM"
>>> result("O=C1/C(=C2\\SCC(=O)N2c2ccccc2)SC(=S)N1c1ccccc1")
"> 100 µM"
>>> result("O=C(NC(CO)CO)c1ccc2cc(C(=O)N3CC(CCl)c4ccc([N+](=O)[O-])cc43)[nH]c2c1 (configuration not stated)")
"> 100 µM"
>>> result("CN1CCN(c2c(O)c3c(c(O)c2Cl)C(=O)C=CC3=O)CC1")
"2.51 µM"
>>> result("Cc1cccc(N2C(=O)C(=O)C(c3nc4ccccc4s3)C(=O)C2=O)c1C")
"> 100 µM"
>>> result("C/C(=N\\n1c(Cc2ccccc2)n[nH]c1=O)c1ccc([N+](=O)[O-])cc1")
"> 100 µM"
>>> result("Clc1ccc(-c2cn(-c3ccccc3)c(-c3ccccc3)n2)c(Cl)c1")
"> 41.2 µM"
>>> result("C/C(NC(=O)c1ccccc1)=C(/C(=O)c1ccccc1)[C@@H]1OC(C)(C)O[C@@H]1[C@H]1COC(C)(C)O1")
"> 100 µM"
>>> result("CC1(C)CC[C@]2(C(=O)O)CC[C@]3(C)[C@H](CC[C@@H]4[C@@]5(C)CCC(=O)C(C)(C)[C@@H]5CC[C@]43C)[C@H]2[C@H]1OC(=O)C(F)(F)F")
"28.2 µM"
>>> result("CCOC(=O)/C=C1/Nc2cc(F)c(F)cc2NC1=O")
"> 100 µM"
>>> result("O=C(CC(=O)Nc1ccccc1Cl)NNC(Sc1ccccc1)c1cc(N=Nc2ccc(Br)cc2)ccc1O (configuration not stated)")
"> 10 µM"
>>> result("CCCN(CCC)c1c([N+](=O)[O-])cc(C(=O)N(C)C)cc1[N+](=O)[O-]")
"> 100 µM"
>>> result("Cc1ccc(-n2c(-c3ccc(Cl)cc3)cs/c2=N\\NC(=O)COc2n[nH]c(=O)c3ccccc23)cc1")
"> 100 µM"
>>> result("Cc1ccc(Nc2nc(NS(=O)(=O)c3cc(C)c(Cl)cc3S)n[nH]2)cc1")
"> 100 µM"
>>> result("Cc1nc2ccc(NCCN(C)C)c3c(=O)c4cc(O)ccc4n1c23")
"11.7 µM"
>>> result("N#Cc1nc(Nc2ccc([N+](=O)[O-])cc2)sc1N")
"> 74.3 µM"
>>> result("COc1cc(C2C3=C(N=C4SC(C(C)=O)=C(C)N42)c2ccccc2CC3)cc(OC)c1OC (configuration not stated)")
"> 100 µM"
>>> result("CC1=C(c2cc(C(=O)Nc3cccc(C(F)(F)F)c3)nc(NC#N)n2)Sc2ccccc2N1")
"> 100 µM"
>>> result("CC(=O)C(C(=O)C(C)(C)C)C(=O)C(C)(C)C")
"> 100 µM"

Entry source: PubChem BioAssay (NCI)
